measured_property: melting point

q: For O=C(O)c1cccc(-n2nccc2C(F)(F)F)c1 , what is its reported melting point?
a: 158 to 160 °C

Others:
q: For C=CCNC(=S)N1CCOCC1 , what is its reported melting point?
a: 61 to 63 °C

q: For CC(C)NC(=O)NCc1ccc(C(=O)O)cc1 , what is its reported melting point?
a: 168 to 170 °C

q: For COc1cccc2c1CCC2=O , what is its reported melting point?
a: 105 to 107 °C

q: For COc1ccccc1NS(=O)(=O)c1ccc(O)c(N)c1 , what is its reported melting point?
a: 167 to 169 °C

q: For CC(=O)Nc1cc(-c2csc(N)n2)ccc1O , what is its reported melting point?
a: 218 to 222 °C

q: For N#Cc1cc(Cl)ccc1N=C=O , what is its reported melting point?
a: 71 to 75 °C

q: For NC(=S)Cc1ccc(Br)cc1 , what is its reported melting point?
a: 146 to 148 °C

* * *

This listing pairs compounds with measured melting point.

Use the examples below as a reference point.
q: For O=S(=O)(c1ccc(Cl)c(Cl)c1)N1CCNCC1 , what is its reported melting point?
a: 125 to 127 °C

q: For NC(=O)c1ccc(CO)c(F)c1 , what is its reported melting point?
a: 103 to 105 °C

q: For NS(=O)(=O)C1CCS(=O)(=O)C1 (centres undefined) , what is its reported melting point?
a: 144 to 146 °C

Others:
q: For Cc1nn2c(nc(Cl)c3ccccc32)c1Cl , what is its reported melting point?
a: 176 to 178 °C

q: For CCC(C)n1nccc1N (centres undefined) , what is its reported melting point?
a: 30 to 32 °C

q: For Nc1[nH]ncc1CCCO , what is its reported melting point?
a: 88 to 90 °C

q: For CCn1nc(C)c(C(=O)O)c1C(F)F , what is its reported melting point?
a: 134 to 136 °C

* * *

This listing pairs molecules with measured melting point.

Use the examples below as a reference point.
q: For CC(C)c1ccc(NC(=S)NN)cc1 , what is its reported melting point?
a: 179 to 181 °C

q: For Cc1cc(C2CCCNC2)n[nH]1 (centres undefined) , what is its reported melting point?
a: 104 to 106 °C

q: For Nc1cc(C2CC2)nn1-c1ccccc1 , what is its reported melting point?
a: 134 to 136 °C

q: For CNC(=O)c1cc(Oc2cc(N)ccc2C)ccn1 , what is its reported melting point?
a: 141 to 143 °C

Others:
q: For O=C(O)C(=O)Cc1cccs1 , what is its reported melting point?
a: 163 to 165 °C

q: For CN1Cc2ccc(N)cc2C1 , what is its reported melting point?
a: 61 to 63 °C

q: For CCCCn1c(=O)c(CCC(=O)O)nc2ccccc21 , what is its reported melting point?
a: 146 to 148 °C

q: For Clc1cc(N2CCNCC2)ncn1 , what is its reported melting point?
a: 100 to 102 °C

q: For Cc1ccnc(NC(=O)C2CCNCC2)c1 , what is its reported melting point?
a: 134 to 136 °C

q: For Cc1ccc(S(=O)(=O)C2(C(=O)O)CCCC2)cc1 , what is its reported melting point?
a: 131 to 133 °C

* * *

measured_property: melting point

Use the examples below as a reference point.
q: For CCN(CC)c1ccc(N)cc1S(=O)(=O)Nc1ccc(OC)cc1 , what is its reported melting point?
a: 107 to 109 °C

q: For O=C(O)c1ccccc1CO , what is its reported melting point?
a: 119 to 121 °C

q: For Cn1cc(S(=O)(=O)N2CCOCC2)cc1C(=O)NC(=O)CCl , what is its reported melting point?
a: 229 to 231 °C

q: For O=C(Cc1ccccc1)c1nc2ccccc2s1 , what is its reported melting point?
a: 110 to 112 °C

q: For O=C(O)c1cccc(F)c1Sc1ccccc1 , what is its reported melting point?
a: 161 to 163 °C

Others:
q: For Cc1n[nH]c2ncc(C=O)cc12 , what is its reported melting point?
a: 202 to 204 °C

q: For COC(=O)c1sc(-c2ccccc2)cc1O , what is its reported melting point?
a: 94 to 96 °C

q: For Cc1cc(=O)n2c(C)csc2c1C#N , what is its reported melting point?
a: 178 to 180 °C

q: For N#Cc1cnccc1N , what is its reported melting point?
a: 170 to 172 °C

q: For Cc1cc(C(=O)CCl)c(C)n1Cc1ccccc1 , what is its reported melting point?
a: 64 to 68 °C

q: For CN1CCN(C(=O)c2ccccc2C(=O)O)CC1 , what is its reported melting point?
a: 274 to 276 °C

q: For CN(C(=O)OC(C)(C)C)c1ccc(O)cc1 , what is its reported melting point?
a: 133 to 135 °C

* * *

measured_property: melting point

Use the examples below as a reference point.
q: For N#Cc1cc2ccccc2nc1Cl , what is its reported melting point?
a: 163 to 165 °C

q: For C=CCn1c(N)c(C(=O)OCC)sc1=S , what is its reported melting point?
a: 118 to 120 °C

q: For CC(C)N1CCC(C(=O)O)CC1 , what is its reported melting point?
a: 168 to 170 °C

q: For CCOC(=O)C1=NN(c2ccccc2)C(C#N)C1 (configuration not stated) , what is its reported melting point?
a: 99 to 101 °C

q: For O=C(Nc1cn[nH]c1)Oc1ccccc1 , what is its reported melting point?
a: 179 to 181 °C

Others:
q: For O=C(O)c1cc(-c2ccccc2)nc2c1cnn2Cc1ccco1 , what is its reported melting point?
a: 242 to 244 °C

q: For Cc1c(C)n(CCc2ccccn2)c2[nH]cnc(=N)c12 , what is its reported melting point?
a: 132 to 134 °C

* * *

This listing pairs compounds with measured melting point.

Use the examples below as a reference point.
q: For ClCc1nc(-c2ccoc2)no1 , what is its reported melting point?
a: 50 to 52 °C

q: For O=C(NC(c1nn[nH]n1)C1CC1)c1ccccc1 (stereo not drawn) , what is its reported melting point?
a: 189 to 191 °C

q: For O=C(O)c1ccc(C(F)(F)F)[nH]c1=O , what is its reported melting point?
a: 161 to 163 °C

q: For COC(=O)c1cc(S(N)(=O)=O)cnc1Cl , what is its reported melting point?
a: 60 to 62 °C

q: For CC(=O)c1ccc(N2CCC(O)CC2)cc1 , what is its reported melting point?
a: 127 to 129 °C

Others:
q: For Cc1cc(NC(=O)OC(C)(C)C)ccc1N , what is its reported melting point?
a: 103 to 105 °C

q: For CCOC1CCN(C(=O)Nc2cccc(C(=O)O)c2)CC1 , what is its reported melting point?
a: 179 to 181 °C

q: For N#Cc1cc(Cl)ccc1Oc1cccc(C(=O)O)c1 , what is its reported melting point?
a: 211 to 213 °C

q: For C/C(=N\Nc1ccc(Cl)c(C(=O)O)c1)c1ccc(Br)cc1 , what is its reported melting point?
a: 180 to 182 °C

q: For NC(=O)CC(NS(=O)(=O)c1cccc(F)c1)C(=O)O (stereo not drawn) , what is its reported melting point?
a: 173 to 175 °C

* * *

measured_property: melting point

Use the examples below as a reference point.
q: For Cc1ccc2nc(C3CC3)cc(C(=O)O)c2c1 , what is its reported melting point?
a: 207 to 209 °C

q: For C/C=C/c1cc(C(=O)O)cc(OC)c1OC , what is its reported melting point?
a: 142 to 144 °C

q: For CNc1ccc(C(=O)O)cn1 , what is its reported melting point?
a: 249 to 251 °C

q: For Cc1n[nH]c(C)c1C(C)C(=O)O (centres undefined) , what is its reported melting point?
a: 181 to 183 °C

q: For Nc1nc(-c2ccccc2O)cs1 , what is its reported melting point?
a: 140 to 142 °C

Others:
q: For C1CNc2nn[nH]c2C1 , what is its reported melting point?
a: 163 to 165 °C

q: For O=C1Nc2ccc(Br)cc2C12CCCC2 , what is its reported melting point?
a: 201 to 203 °C

q: For CCCCOc1ccc(C(C)=O)cc1OC , what is its reported melting point?
a: 47 to 49 °C

q: For CC(C)c1ccc(-c2ncc(CSc3nnc(N)[nH]3)s2)cc1 , what is its reported melting point?
a: 168 to 170 °C

q: For O=C(CCl)NC(c1ccccc1)c1nccs1 (centres undefined) , what is its reported melting point?
a: 108 to 110 °C

q: For COc1cc(C(=O)O)on1 , what is its reported melting point?
a: 145 to 147 °C

q: For CC1CCCC(C)N1S(=O)(=O)c1ccsc1C(=O)O (centres undefined) , what is its reported melting point?
a: 150 to 152 °C

q: For O=C(O)c1ccc(OC2CCC2)cc1 , what is its reported melting point?
a: 191 to 193 °C

q: For O=C(O)COc1cc(Cl)cc(Cl)c1 , what is its reported melting point?
a: 115 to 117 °C
